Measured melting point, listed per entry.

MOLECULE | melting point
COC(=O)c1cc(Oc2ncc(C(F)(F)F)cc2Cl)ccc1NC(=O)c1cc([N+](=O)[O-])ccc1Cl | 154 to 158 °C

# ---- query molecule ----
Query: So what's the measured melting point for this one? "Cc1cc(NC(=O)c2cc([N+](=O)[O-])ccc2F)ccc1Oc1ncc(C(F)(F)F)cc1Cl"
Result: 179 to 181 °C

---

ASSAY ENDPOINT: melting point

MOLECULE | melting point
O=[N+]([O-])c1ccc(Cl)c(S(=O)(=O)Nc2ccc(Sc3ncc(C(F)(F)F)cc3Cl)cc2)c1 [compound 90] | 224 to 226 °C
O=C(Nc1ccc(S(=O)(=O)NC2=NC3C=CC=CC3N=C2)cc1)c1cc([N+](=O)[O-])ccc1Cl (stereo not shown) [compound 138] | 146 to 150 °C
O=C(Nc1ccc(S(=O)(=O)Nc2nccs2)cc1)c1cc([N+](=O)[O-])ccc1Cl [compound 142] | 140 to 147 °C
O=C(Nc1ccc(Oc2ccc(C(F)(F)F)cc2Cl)cc1)c1cc([N+](=O)[O-])ccc1Br [compound 96] | 167 to 172 °C
CN(c1cc(NC(=O)c2cc([N+](=O)[O-])ccc2Cl)ccc1O)c1ncc(C(F)(F)F)cc1Cl [compound 129] | 273 to 276 °C
O=C(NS(=O)(=O)c1ccc(NC(=O)c2cc([N+](=O)[O-])ccc2Cl)cc1)c1ccccc1 [compound 146] | 235 to 237 °C
COc1cccc(C(=O)Nc2ccc(Oc3ccc(C(F)(F)F)cn3)c(Cl)c2)c1 [Compound No. 10] | 103 to 105 °C
CC(=O)Nc1cc(NC(=O)c2cc([N+](=O)[O-])ccc2Cl)ccc1Oc1ncc(C(F)(F)F)cc1Cl [compound 125] | 203 to 205 °C

Query: So what's the measured melting point for this one? Cc1cc(Oc2ncc(C(F)(F)F)cc2Cl)ccc1NC(=O)c1cc([N+](=O)[O-])ccc1Cl [compound 91]
Result: 219 to 221 °C

Query: Lookup O=C(Nc1ccc(Oc2ccc(C(F)(F)F)cn2)c(Cl)c1)c1ccc(F)cc1 [Compound No. 12]
Result: 174 to 176 °C

Query: Lookup O=C(Nc1ccc(Oc2ncc(C(F)(F)F)cc2Cl)cc1C(=O)O)c1cc([N+](=O)[O-])ccc1Cl [compound 101]
Result: 240 to 245 °C

Query: Lookup O=C(Nc1ccc(C23CC4CC(CC(C4)C2)C3)cc1)c1cc([N+](=O)[O-])ccc1Br [compound 94]
Result: 273 to 275 °C

Query: Lookup O=C(Nc1ccc(S(=O)(=O)Nc2ccccn2)cc1)c1cc([N+](=O)[O-])ccc1Cl [compound 136]
Result: 178 to 181 °C

Query: Lookup Cc1cc(NS(=O)(=O)c2cc([N+](=O)[O-])ccc2Cl)ccc1Oc1ncc(C(F)(F)F)cc1Cl [compound 117]
Result: 233 to 236 °C

Query: Lookup O=C(Nc1nc(-c2ccc(Cl)cc2)cs1)c1cc([N+](=O)[O-])ccc1Cl [compound 141]
Result: 217 to 221 °C

Query: Lookup O=C(Nc1ccc(Oc2ccc(C(F)(F)F)cn2)c(Cl)c1)c1ccccc1O [compound 15]
Result: 165 to 167 °C
